test: UWB1.289_BRCA1 ovarian cancer growth, cell-based, BGB or cisplatin combinations (AID 1671459); conditions: UWB1.289 BRCA1 ovarian carcinoma, drug combinations, at 0.5 µM, active compounds read high
Below, each of the molecules is paired with its reported inhibition value.
Quick note: give the figure in %, leave out the unit.

Examples from the recorded data:
O=c1[nH]c(-c2ccc(C(F)(F)F)cc2)nc2c1CSCC2: 0.36
NC(=O)c1ncn(C2OC(CO)C(O)C2O)n1 (stereo unspecified): 1.33
CCc1c2c(nc3ccc(O)cc13)-c1cc3c(c(=O)n1C2)COC(=O)[C@]3(O)CC: 81.6

Memo: O=c1cc(-c2cccc3c2Sc2ccccc2S3)oc(N2CCOCC2)c1 , reported inhibition: -17.9

Memo: CO[C@H]1/C=C/O[C@@]2(C)Oc3c(C)c(O)c4c(O)c(c(C=NN5CCN(C)CC5)c(O)c4c3C2=O)NC(=O)/C(C)=C\C=C\[C@H](C)[C@H](O)[C@@H](C)[C@@H](O)[C@@H](C)[C@H](OC(C)=O)[C@@H]1C , reported inhibition: 4.15

Memo: CC(C)N=c1cc2n(-c3ccc(Cl)cc3)c3ccccc3nc-2cc1Nc1ccc(Cl)cc1 , reported inhibition: -11.4
